Target: UniProt P9WMR3
Sequence (P9WMR3 1-399, added parts left off): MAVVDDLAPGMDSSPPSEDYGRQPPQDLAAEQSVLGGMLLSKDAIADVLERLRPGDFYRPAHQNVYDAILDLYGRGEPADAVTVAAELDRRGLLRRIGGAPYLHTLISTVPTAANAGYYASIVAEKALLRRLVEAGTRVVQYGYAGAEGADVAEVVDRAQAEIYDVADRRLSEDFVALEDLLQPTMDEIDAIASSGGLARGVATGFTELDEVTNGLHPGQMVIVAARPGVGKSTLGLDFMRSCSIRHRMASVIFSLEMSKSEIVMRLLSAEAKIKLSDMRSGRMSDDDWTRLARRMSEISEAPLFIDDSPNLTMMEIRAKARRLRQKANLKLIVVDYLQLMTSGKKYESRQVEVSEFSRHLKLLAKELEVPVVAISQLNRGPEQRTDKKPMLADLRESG
Procedure Summary: DnaB intein splicing inhibitors, dose response, biochemical, cell-free fluorescence (AID 449749)
Type: functional
Active and inactive are the calls of the source.
The reply should name one outcome from active, inactive

Past entries and their recorded results:
| Compound | Target | Label Class |
| --- | --- | --- |
| O=C(NC1CCCC1)C(c1ccc(F)cc1)N(Cc1ccccc1Cl)C(=O)CCl (centres undefined) | UniProt P9WMR3 | inactive |
| O=[N+]([O-])c1c(Nc2ccccc2O)cc(Cl)c2nonc12 | UniProt P9WMR3 | active |
| COc1cc(C(c2c(C)n[nH]c2O)c2c(C)n[nH]c2O)cc(Cl)c1O | UniProt P9WMR3 | active |
| Cc1nc2ccccc2c2c1C(=O)N(C)C2=O | UniProt P9WMR3 | active |
| Cn1cnc([N+](=O)[O-])c1S(=O)(=O)c1cccc(Cl)c1 | UniProt P9WMR3 | active |

Exam item: Hi, do you know how O=C(O)c1cc(Nc2cc(Cl)c3nonc3c2[N+](=O)[O-])ccc1O came out in this test?
Marked response: active

Exam item: Hi, do you know how O=C(CN1C(=O)S/C(=C\C=C\c2ccccc2)C1=O)Nc1ccc(C(=O)O)cc1 came out in this test?
Marked response: active

Exam item: What did the test return for Cc1ccc(S(=O)(=O)N(C(=O)c2ccncc2)c2ccc(OC(=O)c3ccncc3)c3ccccc23)cc1 ?
Marked response: active

* * *

IC50 values, listed per item
Target: Protein skinhead-1 (Caenorhabditis elegans)
Sequence (P34707 whole entry): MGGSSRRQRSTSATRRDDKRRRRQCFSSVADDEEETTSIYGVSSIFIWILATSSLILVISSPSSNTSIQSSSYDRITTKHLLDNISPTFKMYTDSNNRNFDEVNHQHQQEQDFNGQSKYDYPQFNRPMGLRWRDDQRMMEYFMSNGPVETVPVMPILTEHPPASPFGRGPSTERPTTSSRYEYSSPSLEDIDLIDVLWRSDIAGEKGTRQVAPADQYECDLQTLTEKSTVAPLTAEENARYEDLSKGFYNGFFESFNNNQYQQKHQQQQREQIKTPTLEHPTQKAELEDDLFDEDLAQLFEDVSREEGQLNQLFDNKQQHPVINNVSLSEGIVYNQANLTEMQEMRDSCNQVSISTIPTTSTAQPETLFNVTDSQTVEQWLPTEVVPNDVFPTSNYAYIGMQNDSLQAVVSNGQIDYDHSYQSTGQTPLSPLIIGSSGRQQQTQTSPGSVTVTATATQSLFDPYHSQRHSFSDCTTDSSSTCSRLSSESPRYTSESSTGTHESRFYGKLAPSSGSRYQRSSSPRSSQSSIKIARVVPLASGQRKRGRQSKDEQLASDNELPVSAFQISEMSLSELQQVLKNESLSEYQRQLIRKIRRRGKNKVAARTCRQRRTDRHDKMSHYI
Type: functional
Activity calls are given as the source filed them.

Consider the reported IC50 for these compounds:
| Chem Smiles | Target | Result |
| --- | --- | --- |
| Cn1c(Cc2ccccc2)nnc1SCC(=O)Nc1ccc2c(c1)OCO2 | Protein skinhead-1 (Caenorhabditis elegans) | > 100 µM (inactive) |
| Cc1ccc2nc(-c3ccc(NC(S)=NC4CC(C)(C)NC(C)(C)C4)cc3)sc2c1 | Protein skinhead-1 (Caenorhabditis elegans) | 35.1 µM (active) |
| O=C(O)c1ccccc1-c1ccccc1C(=O)Nc1ccc2c(c1)oc(=O)c1ccccc12 | Protein skinhead-1 (Caenorhabditis elegans) | > 100 µM (inactive) |
| O=C(Nc1ccc(OC(F)F)c(Cl)c1)c1ccccn1 | Protein skinhead-1 (Caenorhabditis elegans) | 51.6 µM (inactive) |
| Brc1ccc2nc(-c3ccccc3)c(Cc3ccsc3)n2c1 | Protein skinhead-1 (Caenorhabditis elegans) | > 100 µM (inactive) |

Then there is this compound:
# Fc1ccc(COc2ccc(-c3nnco3)cc2)cc1 with Protein skinhead-1 (Caenorhabditis elegans): IC50 is 5.67 µM (active)

* * *

molecules and their reported IC50
Target: UniProtKB P49327
Sequence (P49327 whole entry, the tested form may be a part): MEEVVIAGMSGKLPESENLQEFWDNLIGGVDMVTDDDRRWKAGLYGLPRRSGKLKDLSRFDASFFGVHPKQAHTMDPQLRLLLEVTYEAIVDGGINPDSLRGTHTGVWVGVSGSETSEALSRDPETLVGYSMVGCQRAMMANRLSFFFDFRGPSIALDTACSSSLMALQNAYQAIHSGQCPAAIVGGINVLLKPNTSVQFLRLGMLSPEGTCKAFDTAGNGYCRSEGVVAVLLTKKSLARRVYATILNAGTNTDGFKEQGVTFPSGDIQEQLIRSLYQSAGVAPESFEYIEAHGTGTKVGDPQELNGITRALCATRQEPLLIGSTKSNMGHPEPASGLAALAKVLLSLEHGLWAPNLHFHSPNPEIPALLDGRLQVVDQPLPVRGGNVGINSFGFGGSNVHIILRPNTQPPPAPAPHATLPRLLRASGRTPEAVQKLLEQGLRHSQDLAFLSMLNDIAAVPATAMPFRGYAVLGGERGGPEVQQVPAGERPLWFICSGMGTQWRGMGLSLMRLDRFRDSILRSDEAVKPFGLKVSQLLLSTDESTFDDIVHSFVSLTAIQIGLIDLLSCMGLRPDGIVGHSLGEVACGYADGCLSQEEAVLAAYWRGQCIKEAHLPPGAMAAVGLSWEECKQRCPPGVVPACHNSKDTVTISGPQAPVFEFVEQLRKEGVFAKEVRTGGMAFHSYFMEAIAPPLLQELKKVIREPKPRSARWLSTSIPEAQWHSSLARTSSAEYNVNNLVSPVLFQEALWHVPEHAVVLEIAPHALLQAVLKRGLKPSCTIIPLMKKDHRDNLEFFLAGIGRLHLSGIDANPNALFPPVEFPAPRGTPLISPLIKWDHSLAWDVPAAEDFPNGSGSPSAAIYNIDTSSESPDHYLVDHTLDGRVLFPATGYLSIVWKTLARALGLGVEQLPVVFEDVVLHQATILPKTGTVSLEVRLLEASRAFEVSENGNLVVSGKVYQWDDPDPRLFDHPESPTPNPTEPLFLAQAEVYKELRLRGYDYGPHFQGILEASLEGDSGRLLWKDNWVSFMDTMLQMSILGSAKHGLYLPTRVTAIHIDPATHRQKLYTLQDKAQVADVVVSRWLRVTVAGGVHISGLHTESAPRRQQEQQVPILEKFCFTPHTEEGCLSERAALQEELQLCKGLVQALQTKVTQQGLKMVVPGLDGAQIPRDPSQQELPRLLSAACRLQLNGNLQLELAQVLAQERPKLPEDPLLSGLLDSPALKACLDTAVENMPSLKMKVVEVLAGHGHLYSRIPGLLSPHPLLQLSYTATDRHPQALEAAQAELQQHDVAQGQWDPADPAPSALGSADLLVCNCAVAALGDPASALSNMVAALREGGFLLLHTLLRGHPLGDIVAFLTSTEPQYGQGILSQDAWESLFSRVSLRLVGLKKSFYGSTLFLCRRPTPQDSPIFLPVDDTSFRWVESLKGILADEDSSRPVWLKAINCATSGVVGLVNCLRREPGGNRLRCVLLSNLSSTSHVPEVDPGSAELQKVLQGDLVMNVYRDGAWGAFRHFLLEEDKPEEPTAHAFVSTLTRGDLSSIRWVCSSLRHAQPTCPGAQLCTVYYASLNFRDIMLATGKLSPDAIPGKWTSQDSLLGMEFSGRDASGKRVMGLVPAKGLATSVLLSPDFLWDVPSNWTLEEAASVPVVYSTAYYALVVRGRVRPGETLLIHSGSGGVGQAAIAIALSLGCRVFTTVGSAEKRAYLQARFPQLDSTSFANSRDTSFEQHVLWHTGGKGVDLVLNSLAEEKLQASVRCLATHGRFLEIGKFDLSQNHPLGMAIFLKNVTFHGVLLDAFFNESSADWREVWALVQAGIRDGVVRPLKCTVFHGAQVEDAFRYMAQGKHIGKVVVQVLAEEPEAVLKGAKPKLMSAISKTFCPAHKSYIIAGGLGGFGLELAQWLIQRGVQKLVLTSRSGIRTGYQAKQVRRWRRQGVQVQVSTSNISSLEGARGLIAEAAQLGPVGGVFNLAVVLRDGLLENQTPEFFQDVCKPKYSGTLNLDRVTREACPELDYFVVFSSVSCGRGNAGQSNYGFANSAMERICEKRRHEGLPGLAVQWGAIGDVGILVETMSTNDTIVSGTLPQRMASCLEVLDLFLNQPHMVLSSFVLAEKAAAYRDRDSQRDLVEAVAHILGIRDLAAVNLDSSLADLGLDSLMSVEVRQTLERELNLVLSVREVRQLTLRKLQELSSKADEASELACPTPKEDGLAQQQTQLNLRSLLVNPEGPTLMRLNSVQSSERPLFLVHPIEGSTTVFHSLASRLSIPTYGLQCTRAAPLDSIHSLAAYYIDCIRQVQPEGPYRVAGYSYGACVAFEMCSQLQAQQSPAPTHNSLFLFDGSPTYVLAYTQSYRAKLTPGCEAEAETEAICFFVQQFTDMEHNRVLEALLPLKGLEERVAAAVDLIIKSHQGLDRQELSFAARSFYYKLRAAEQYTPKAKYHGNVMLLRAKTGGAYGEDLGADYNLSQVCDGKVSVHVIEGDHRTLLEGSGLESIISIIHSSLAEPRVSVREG
Procedure Summary: FAS thioesterase domain inhibitors, dose response, biochemical, kinetic fluorescence intensity (AID 624326);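 also: rate of fluorescence rise from hydrolysis of a fluorogenic O-methyl fluorescein ester substrate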
Assay type: functional
Calls of active or inactive are those of the source.

As a guide, the following entries are already answered.
| Molecule | IC50 |
| --- | --- |
| COc1ccccc1CNC(=O)COC(=O)c1cc([N+](=O)[O-])ccc1N1CCOCC1 | 1.64 µM (active) |
| O=[N+]([O-])c1c(Nc2ccccc2O)cc(Cl)c2nonc12 | 7.45 µM (active) |
| N#Cc1ccc(Sc2nc3ccccc3[nH]2)cc1C#N | 2.3 µM (active) |
| CCCC(C)c1nnc(NC(=O)c2cc(C(=O)OC)cc([N+](=O)[O-])c2)s1 (stereo unspecified) | 7.04 µM (active) |

Entry COc1ccc([N+](=O)[O-])cc1NC(=O)Nc1ccccc1 ; IC50 = 15.5 µM (active)

// IC50 lookup, molecule = CC(C)CSc1ncc(-c2cccc(C(F)(F)F)c2)cn1 , result: 14.2 µM (active)
